Molecular target: MPER peptide PDT-081 (HIV-1)
Assay: ELISA on PDT-081
Below, each entry is listed with its recorded EC50.
# number only, unit µg/mL dropped from output

Query block: Which EC50 is listed for H4K3_RS73PE (antibody, V domains shown) VH: KVQLVQSGAELKKPWSSVRVSCKASGGSFSSYAFNWVRQAPGQRLEWLGGIVPLVSSTNYAQRFRGRVTISADPETSTVYLEMTGLTSADTAVYFCAREGEGWFGRPLRAFEFWGQGTLVTVST VL: EIVLTQSPGTFALSPGERATLSCRASQSVSGGALAWYQQKAGQAPRLLIYDTSGRATGVPGRFSGSGSETDFSLTISRLEPEDFAVYYCQQYGTSQSTFGQGTRLETR ?
Result block: 0.09

Query block: Which EC50 is listed for H4K3_5M (antibody, V domains shown) VH: KVQLVQSGAELKKPWSSVRVSCKASGGEPESYAFNWVRQAPGQRLEWLGGIVPLVSSTNYAQRFRGRVTISADPETSTVYLEMTGLTSADTAVYFCAREGEGWFGRPLRAFEFWGQGTLVTVST VL: EIVLTQSPGTFALSPGERATLSCRASQSVSGGALAWYQQKAGQAPRLLIYDTSGRATGVPGRFSGSGSETDFSLTISRLEPEDFAVYYCQQYGTSQSTFGQGTRLETR ?
Result block: 0.083

Query block: Which EC50 is listed for PGZL1.H4K3 (antibody, V domains shown) VH: KVQLVQSGAELKKPWSSVRVSCKASGGSFSSYAFNWVRQAPGQRLEWLGGIVPLVSSTNYAQRFRGRVTISADRSTSTVYLEMTGLTSADTAVYFCAREGEGWFGRPLRAFEFWGQGTLVTVST VL: EIVLTQSPGTFALSPGERATLSCRASQSVSGGALAWYQQKAGQAPRLLIYGTSGRATGVPGRFSGSGSETDFSLTISRLEPEDFAVYYCQQYGTSQSTFGQGTRLETR ?
Result block: 0.039

Query block: Which EC50 is listed for H4K3_SFS28EPE (antibody, V domains shown) VH: KVQLVQSGAELKKPWSSVRVSCKASGGEPESYAFNWVRQAPGQRLEWLGGIVPLVSSTNYAQRFRGRVTISADRSTSTVYLEMTGLTSADTAVYFCAREGEGWFGRPLRAFEFWGQGTLVTVST VL: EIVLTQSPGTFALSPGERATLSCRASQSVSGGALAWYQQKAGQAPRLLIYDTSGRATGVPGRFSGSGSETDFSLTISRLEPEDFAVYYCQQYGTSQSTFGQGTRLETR ?
Result block: 0.076
